test system: BXPC-3 (pancreas); experiment: Sulforhodamine B human cancer cell growth inhibition, BXPC-3; format: cell-based; settings: Homo sapiens, BXPC-3 pancreas cell line, compounds in DMSO, 48 h, read-out: Gl50 Growth Inhibition, XPC-3
experimental endpoint: IC50 (µg/mL)
Express it in µg/mL; write the number only.

INSERT INTO assay_data (compound, experimental_endpoint, observed) VALUES
  ('C=C(C)[C@@H]1CC[C@]2(CN)CC[C@]3(C)C(CCC4[C@@]5(C)CC[C@H](OC(C)=O)C(C)(C)C5CC[C@]43C)C12 (some centres unmarked)', 'IC50', 1.9);

Recorded result, CC[C@H](C)C([C@@H](CC(=O)N1CCCC1[C@H](OC)[C@@H](C)C(=O)NCCN1C(=O)[C@]23CCC(C)(C)C1C2[C@H]1CCC2[C@@]4(C)CC[C@H](O)C(C)(C)C4CC[C@@]2(C)[C@]1(C)CC3)OC)N(C)C(=O)[C@@H](NC(=O)[C@H](C(C)C)N(C)C)C(C)C (some centres unmarked) [Compound 18b] , IC50: 0.31

====

tested on: KM20L2 (colon); test: Sulforhodamine B human cancer cell growth inhibition, KM20L2; format: cell-based; conditions: Homo sapiens, KM-20L2, KM20L2 colon cell line, compounds in DMSO, 48 h, read-out: Gl50 Growth Inhibition, KM20L2
experimental endpoint: IC50 (µg/mL)
Express it in µg/mL; write the number only.

INSERT INTO results (compound, experimental_endpoint, u, observed) VALUES
  ('C=C(C)[C@@H]1CC[C@]2(CN)CC[C@]3(C)C(CCC4[C@@]5(C)CC[C@H](OC(C)=O)C(C)(C)C5CC[C@]43C)C12 (some centres unmarked) [Compound 3, 3-O-Acetyl-28-aminobetulin]', 'IC50', 'µg/mL', 1.9);

I looked up C=C(CNC(=O)[C@H](C)[C@@H](OC)C1CCCN1C(=O)C[C@@H](OC)[C@H]([C@@H](C)CC)N(C)C(=O)[C@@H](NC(=O)C(C(C)C)N(C)C)C(C)C)[C@@H]1CC[C@]2(CO)CC[C@]3(C)C(CCC4[C@@]5(C)CC[C@H](O)C(C)(C)[C@@H]5CC[C@]43C)[C@@H]12 (stereo partly drawn) [Compound 16b, 30-N-(Dap-Dil-Val-Dov)-betulin] and its IC50 for KM20L2 (colon) was 0.09

I looked up C=C(C)[C@@H]1CC[C@]2(COC(C)=O)CC[C@]3(C)C(CCC4[C@@]5(C)CC/C(=N/O)C(C)(C)[C@@H]5CC[C@]43C)[C@@H]12 (some centres unmarked) [Compound 8, 3-Oxime-28-O-acetyl-betulin] and its IC50 for KM20L2 (colon) was 14.1
